# assayedSystem: Tyrosine-protein kinase JAK3 (Homo sapiens, UniProt P52333)
# Sequence (P52333 whole entry): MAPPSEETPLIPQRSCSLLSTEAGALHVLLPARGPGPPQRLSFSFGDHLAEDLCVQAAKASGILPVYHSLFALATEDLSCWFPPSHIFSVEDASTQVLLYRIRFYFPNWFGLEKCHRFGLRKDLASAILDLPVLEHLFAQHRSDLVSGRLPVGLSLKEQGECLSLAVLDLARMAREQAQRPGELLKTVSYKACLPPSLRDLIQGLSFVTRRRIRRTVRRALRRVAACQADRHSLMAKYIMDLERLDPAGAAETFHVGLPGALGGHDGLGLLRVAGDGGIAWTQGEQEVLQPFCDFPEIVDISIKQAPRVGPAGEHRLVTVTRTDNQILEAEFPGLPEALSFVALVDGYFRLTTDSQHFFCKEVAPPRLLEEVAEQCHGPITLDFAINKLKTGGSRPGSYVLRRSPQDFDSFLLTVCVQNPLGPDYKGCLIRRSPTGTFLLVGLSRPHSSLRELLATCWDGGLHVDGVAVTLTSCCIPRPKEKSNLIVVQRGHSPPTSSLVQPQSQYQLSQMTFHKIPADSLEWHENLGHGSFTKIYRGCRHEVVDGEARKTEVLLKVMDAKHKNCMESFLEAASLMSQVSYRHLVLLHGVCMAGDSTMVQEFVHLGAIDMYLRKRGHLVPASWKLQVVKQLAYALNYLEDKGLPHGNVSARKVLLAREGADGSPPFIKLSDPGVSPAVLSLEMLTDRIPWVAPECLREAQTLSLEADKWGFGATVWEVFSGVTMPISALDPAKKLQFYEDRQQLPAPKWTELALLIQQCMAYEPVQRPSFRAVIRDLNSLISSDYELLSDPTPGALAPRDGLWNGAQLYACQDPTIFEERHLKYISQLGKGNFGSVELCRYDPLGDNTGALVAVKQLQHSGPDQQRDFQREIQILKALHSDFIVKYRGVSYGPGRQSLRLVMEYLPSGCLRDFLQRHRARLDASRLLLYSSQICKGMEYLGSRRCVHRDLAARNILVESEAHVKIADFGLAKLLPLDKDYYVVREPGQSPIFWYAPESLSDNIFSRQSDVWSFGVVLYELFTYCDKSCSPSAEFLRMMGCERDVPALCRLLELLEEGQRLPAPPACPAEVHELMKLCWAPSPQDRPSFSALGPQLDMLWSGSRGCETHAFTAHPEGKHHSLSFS
# procedureSummary: Inhibition of fluorescein labeled probe binding to human recombinant JAK3 JH1 domain incubated for 1 hr by HTRF assay
pIC50: −log10 of the molar value.
recordedMetric: pIC50

(Q) Using the record for "[2H]C([2H])([2H])NC(=O)c1nnc(Nc2ccccn2)cc1Nc1ccccc1S(C)(=O)=O" , report its pIC50.
(A) < 5.00

###

# assayedSystem: Voltage-gated inwardly rectifying potassium channel KCNH2 (Homo sapiens)
# Sequence (Q12809 whole entry): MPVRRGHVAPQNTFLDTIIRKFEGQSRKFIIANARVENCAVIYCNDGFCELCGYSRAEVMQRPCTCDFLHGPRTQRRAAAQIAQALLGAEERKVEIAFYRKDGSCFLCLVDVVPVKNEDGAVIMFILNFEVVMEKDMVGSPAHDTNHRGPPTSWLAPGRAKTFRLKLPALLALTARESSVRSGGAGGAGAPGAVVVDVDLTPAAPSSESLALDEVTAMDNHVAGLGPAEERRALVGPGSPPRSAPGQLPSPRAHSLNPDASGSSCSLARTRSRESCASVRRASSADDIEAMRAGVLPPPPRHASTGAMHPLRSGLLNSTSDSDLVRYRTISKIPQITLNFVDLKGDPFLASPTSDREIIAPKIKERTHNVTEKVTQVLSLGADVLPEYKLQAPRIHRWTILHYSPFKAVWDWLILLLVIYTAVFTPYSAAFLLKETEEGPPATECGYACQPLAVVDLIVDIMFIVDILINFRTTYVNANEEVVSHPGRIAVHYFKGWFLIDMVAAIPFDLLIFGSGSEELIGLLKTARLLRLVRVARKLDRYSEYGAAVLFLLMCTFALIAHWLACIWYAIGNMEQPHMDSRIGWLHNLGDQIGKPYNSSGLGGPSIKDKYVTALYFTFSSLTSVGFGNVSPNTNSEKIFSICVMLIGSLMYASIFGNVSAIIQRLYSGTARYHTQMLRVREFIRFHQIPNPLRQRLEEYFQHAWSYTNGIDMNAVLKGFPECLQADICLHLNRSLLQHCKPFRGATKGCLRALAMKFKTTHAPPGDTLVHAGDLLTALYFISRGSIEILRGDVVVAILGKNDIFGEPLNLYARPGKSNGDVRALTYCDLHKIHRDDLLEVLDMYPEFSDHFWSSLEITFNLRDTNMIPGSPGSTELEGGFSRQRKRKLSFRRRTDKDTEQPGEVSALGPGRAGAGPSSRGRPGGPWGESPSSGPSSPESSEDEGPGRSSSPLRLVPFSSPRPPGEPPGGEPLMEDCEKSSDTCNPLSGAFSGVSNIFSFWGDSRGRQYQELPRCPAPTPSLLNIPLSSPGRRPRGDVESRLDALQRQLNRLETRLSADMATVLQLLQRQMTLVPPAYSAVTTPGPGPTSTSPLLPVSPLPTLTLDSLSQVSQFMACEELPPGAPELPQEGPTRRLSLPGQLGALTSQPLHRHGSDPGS
recordedMetric: IC50 (µM)
Reply with just the number (in µM).

(Q) Look up IC50 with Voltage-gated inwardly rectifying potassium channel KCNH2 (Homo sapiens) for this compound: "CNC(=O)c1cnc(Nc2ccc(C(F)(F)F)cn2)cc1Nc1cccc(-c2ncn(C)n2)c1OC"
(A) 16

###

# assayedSystem: Non-receptor tyrosine-protein kinase TYK2 (Homo sapiens, UniProt P29597)
# Sequence (P29597 whole entry): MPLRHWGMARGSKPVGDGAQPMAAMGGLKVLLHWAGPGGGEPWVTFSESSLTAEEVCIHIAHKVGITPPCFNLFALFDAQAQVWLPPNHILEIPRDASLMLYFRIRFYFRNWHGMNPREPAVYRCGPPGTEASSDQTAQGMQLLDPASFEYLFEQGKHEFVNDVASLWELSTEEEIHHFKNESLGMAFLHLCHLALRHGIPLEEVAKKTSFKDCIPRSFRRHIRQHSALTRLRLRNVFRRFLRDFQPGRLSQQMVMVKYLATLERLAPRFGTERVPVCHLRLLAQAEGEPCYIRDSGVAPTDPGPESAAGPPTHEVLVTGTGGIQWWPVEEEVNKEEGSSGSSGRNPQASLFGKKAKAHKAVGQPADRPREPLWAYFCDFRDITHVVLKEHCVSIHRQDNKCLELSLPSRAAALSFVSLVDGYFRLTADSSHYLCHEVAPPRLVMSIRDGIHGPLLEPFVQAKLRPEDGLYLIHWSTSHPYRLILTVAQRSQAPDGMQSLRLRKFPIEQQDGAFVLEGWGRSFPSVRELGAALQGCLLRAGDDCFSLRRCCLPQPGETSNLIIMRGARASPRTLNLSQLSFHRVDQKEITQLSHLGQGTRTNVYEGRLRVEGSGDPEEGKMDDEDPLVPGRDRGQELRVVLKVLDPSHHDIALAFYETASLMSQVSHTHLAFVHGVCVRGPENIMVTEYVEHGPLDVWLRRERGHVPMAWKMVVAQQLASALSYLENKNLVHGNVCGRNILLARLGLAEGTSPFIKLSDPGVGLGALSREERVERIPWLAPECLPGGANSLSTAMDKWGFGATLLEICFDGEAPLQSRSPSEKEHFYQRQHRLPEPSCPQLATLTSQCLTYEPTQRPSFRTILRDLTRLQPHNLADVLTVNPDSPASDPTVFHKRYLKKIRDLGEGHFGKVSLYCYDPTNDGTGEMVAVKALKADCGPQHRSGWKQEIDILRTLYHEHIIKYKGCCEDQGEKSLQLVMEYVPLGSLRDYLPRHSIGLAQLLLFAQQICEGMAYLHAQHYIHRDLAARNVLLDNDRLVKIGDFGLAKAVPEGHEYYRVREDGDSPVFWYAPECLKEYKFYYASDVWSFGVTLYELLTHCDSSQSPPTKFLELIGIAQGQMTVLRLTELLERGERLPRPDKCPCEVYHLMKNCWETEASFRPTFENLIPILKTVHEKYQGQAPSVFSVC
# procedureSummary: Inhibition of TYK2 in human whole blood assessed as decrease in IFNalpha-induced STAT5 phosphorylation preincubated for 1 hr followed by stimulation with IFN-alpha for 15 mins by fluorescence analysis
recordedMetric: IC50 (nM)
Form entry: value (nM) — number only.

INSERT INTO results (inputsmiles, displayunit, resultvalue) VALUES
  ('CNC(=O)c1cnc(Nc2cc(C)c(F)cn2)cc1Nc1cccc(-c2nnc(C)o2)c1OC', 'nM', 100),
  ('CNC(=O)c1cnc(Nc2cc(C)c(F)cn2)cc1Nc1cccc(-c2ccn(C)n2)c1OC', 'nM', 79),
  ('CNC(=O)c1cnc(Nc2cc(C)c(F)cn2)cc1Nc1cccc(C(=O)NCCO)c1OC', 'nM', 270),
  ('CNC(=O)c1cnc(Nc2ccc(C(F)(F)F)cn2)cc1Nc1cccc(-c2ncn(C)n2)c1OC', 'nM', 69),
  ('CNC(=O)c1cnc(Nc2cc(C)c(F)cn2)cc1Nc1cccc(C(=O)N(C)C)c1OC', 'nM', 750);

(Q) Using the record for "CNC(=O)c1cnc(Nc2ccc(F)cn2)cc1Nc1cccc(C(=O)NC)c1OC" , report its IC50.
(A) 230
